Assay: M. tuberculosis H37Rv growth inhibitors, H37Rv strain (AID 1626);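 note: bacteria incubated seven days before Alamar blue readout; 0% = bacteria only wells and 100% = bacteria with antibiotic wells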
Conditions: active compounds read high, concentration not given here
About 2,000 (0.91%) of roughly 220,000 compounds were called active. Inconclusive results (about 2%) are left out. Only a sample is shown. Potency and affinity values are given separately.
QUANTITY: inhibition (%)
The answer is to be given in %; state only the numeric part.

Reference set, count: 5
| COMPOUND | UNIT_TAG | inhibition |
| --- | --- | --- |
| O=C(/C=C\c1ccco1)c1ccc(NC(=O)c2ccco2)cc1 | % | -2.87 |
| COc1cc(OC)c2ccc(=O)oc2c1C(CCN1CCCC(C)C1)c1ccc(N(C)C)cc1 (stereo unspecified) | % | -10.1 |
| CC(C)COC(=O)C(C#N)c1nc2ccccc2nc1N1CCN(Cc2ccc3c(c2)OCO3)CC1 (stereo unspecified) | % | 2.75 |
| CC(C)Nc1nc(-c2ccccc2)nc(-n2ccnc2)n1 | % | 8.64 |
| COCC(C)NC(=S)NC(=O)c1cc(S(=O)(=O)N2CCOCC2)ccc1C (stereo unspecified) | % | 4.56 |

q: Report inhibition for `O=C(Nc1cccc([N+](=O)[O-])c1)c1ccc(N2CCCC2=O)cc1`
a: 3.44

q: Report inhibition for CCCOc1ccc(C(=O)NCC2OCCc3ccccc32)cc1OC (stereo unspecified)
a: -1.65

q: Report inhibition for CC(C)=C1C2CCC1C1C(=O)N(c3ccc(C)c(C)c3)C(=O)C21 (stereo unspecified)
a: 2.47

q: Report inhibition for `Cc1cc(N2CCN(c3ccccc3)CC2)nc(-c2ccccc2)n1`
a: -10.3

q: Report inhibition for `Nc1nc(N2CCN(c3ccc(Cl)cc3)CC2)n[nH]1`
a: 6.82

q: Report inhibition for `CCc1ccc(OCCCC(=O)O)c(Br)c1`
a: -8.18

---

# inhibition per record follows
Assay: M. tuberculosis H37Rv growth inhibitors, H37Rv strain (AID 1626)
Conditions: active compounds read high, concentration not given here
The whole screen tested about 220,000 compounds, of which about 2,000 (0.91%) were called active. About 2% were inconclusive and are not listed. These entries were drawn from the full list. Potency and affinity values are given separately.
The answer is to be given in %; state only the numeric part.

| MOLECULE | inhibition (%) |
| --- | --- |
| CC(=O)N1CCN(c2ccnc3cc(Cl)ccc23)CC1 | -0.19 |
| Cc1c(O)c(S(=O)(=O)c2ccccc2)c(=O)n(-c2ccccc2)c1-c1ccccc1 | -1.42 |
| Cc1ccc(CNC(=O)CSc2nc(C)cc(C)c2C#N)cc1 | -9.02 |
| C#CCOCCOCCOCCNc1nc(N2CCOCC2)nc(N2CCN(C(=O)Cn3cc(CCCN=C(N)N)nn3)CC2)n1 | -13.8 |
| Cc1cccc(Cl)c1NC(=O)N1CCN(c2ccnc3cc(Cl)ccc23)CC1 | 0.44 |

q: Report inhibition for `COc1ccccc1-c1ccc(SCc2ccc(F)cc2)nn1`
a: -3.99

q: Report inhibition for CCc1cccc(C)c1NC(=S)N1CCCCC1c1cccnc1 (stereo not given)
a: 1.2

q: Report inhibition for `O=C(CNc1cc(S(=O)(=O)N2CCCC2)ccc1OCC(F)(F)F)Nc1cc(Cl)cc(Cl)c1`
a: 0.25

---

Test: M. tuberculosis H37Rv growth inhibitors, H37Rv strain (AID 1626)
Details: active compounds read high, concentration not given here
About 2,000 (0.91%) of roughly 220,000 compounds were called active. Roughly 2% stayed inconclusive and do not appear here. Not all results are given here. Measured potencies and affinities stand elsewhere.
# inhibition per record follows
The answer is to be given in %; state only the numeric part.

Reference set, count: 4
| SMILES_STRING | UNIT_TAG | inhibition |
| --- | --- | --- |
| Cc1cc(/C=C2/NC(=O)N(Cc3ccccc3F)C2=O)c(C)n1C(C)C | % | 7.35 |
| CCc1ccc(-c2cc(C(F)(F)F)n3nc(C(=O)Nc4c(C)nn(Cc5ccccc5Cl)c4C)cc3n2)s1 | % | -4.86 |
| Cc1[nH]c2ccccc2c1/C=C/C(=O)c1ccncc1 | % | 6.67 |
| COc1ccc2oc(=O)c(C(=O)N3CCN(c4ccccc4C)CC3)cc2c1 | % | -3.36 |

q: Report inhibition for `O=C(OCC(=O)N1CCCC1)c1cc(Br)ccc1Cl`
a: 7.39

---

# inhibition per record follows
Assay: M. tuberculosis H37Rv growth inhibitors, H37Rv strain (AID 1626)
Conditions: active compounds read high, concentration not given here
Among all 220,000 compounds or so, about 2,000 (0.91%) were called active. Roughly 2% stayed inconclusive and do not appear here. A selection follows. Results with a measured potency or affinity are listed apart.
The answer is to be given in %; state only the numeric part.

q: Report inhibition for `Cc1cc(NC(=O)CSc2nnc(-c3ccoc3C)o2)no1`
a: 4.02

q: Report inhibition for `COc1ccc(CSc2cccc3cccnc23)cc1[N+](=O)[O-]`
a: -0.94

q: Report inhibition for `Cc1ccc(OCC(=O)Nc2ccc(S(=O)(=O)Nc3ccccn3)cc2)c(C)c1`
a: -1.52

---

Assay: M. tuberculosis H37Rv growth inhibitors, H37Rv strain (AID 1626);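 note: bacteria incubated seven days before Alamar blue readout; 0% = bacteria only wells and 100% = bacteria with antibiotic wells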
Settings: active compounds read high, concentration not given here
Among all 220,000 compounds or so, about 2,000 (0.91%) were called active. Roughly 2% stayed inconclusive and do not appear here. The list is a sample of the results. Results with a measured potency or affinity are listed apart.
QUANTITY: inhibition (%)
The answer is to be given in %; state only the numeric part.

q: Report inhibition for OC(Cn1ccnc1)c1ccc(Cl)cc1Cl (stereo unspecified)
a: -10.3

q: Report inhibition for CC1CCc2nc(NC(=O)CN3CCN(c4ccc(F)cc4)CC3)sc2C1 (stereo unspecified)
a: 18.4

q: Report inhibition for `COc1ccc(-c2noc(CCC(=O)Nc3cc(OC)ccc3OC)n2)cc1`
a: 3.07

q: Report inhibition for `Cc1cc2nnc(SCC(=O)NCc3cccs3)n2c(N)n1`
a: -5.08

q: Report inhibition for `Cc1cccc(NC(=O)NNS(=O)(=O)c2ccc(F)cc2)c1`
a: 7.42

q: Report inhibition for `COC(=O)c1cc(NS(=O)(=O)c2cccc(Cl)c2)ccc1N1CCOCC1`
a: 3.2

q: Report inhibition for `O=C(CCC(=O)OCCCC(F)(F)C(F)(F)F)NC1CCCCC1`
a: -2.21

---

Assay: M. tuberculosis H37Rv growth inhibitors, H37Rv strain (AID 1626);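 note: bacteria incubated seven days before Alamar blue readout; 0% = bacteria only wells and 100% = bacteria with antibiotic wells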
Details: active compounds read high, concentration not given here
Among all 220,000 compounds or so, about 2,000 (0.91%) were called active. Not shown: some 2% with an inconclusive outcome. The list is a sample of the results. Results with a measured potency or affinity are listed apart.
# inhibition per record follows

Reference set, count: 2
| MOLECULE | inhibition |
| --- | --- |
| O=S(=O)(Nc1cccc2cn[nH]c12)c1ccc(F)cc1 | -1.2% (inactive) |
| COc1ccc(-c2cc(C(=O)Nc3cc(OC)c(OC)c(OC)c3)no2)cc1OC | -1.57% (inactive) |

q: Report inhibition for `OCC1(Cc2cccc(C(F)(F)F)c2)CCN(Cc2cc(F)cc(F)c2)CC1`
a: 1.35% (inactive)

q: Report inhibition for Cc1ccc(C2(C)NC(=O)N(Cc3c(C)noc3C)C2=O)cc1 (configuration not stated)
a: -0.8% (inactive)

q: Report inhibition for CC(NC(=O)c1ccccc1Br)c1ccc2c(c1)CCCC2 (configuration not stated)
a: 6.54% (inactive)

q: Report inhibition for `CN(C)S(=O)(=O)c1ccc2c(c1)c(=O)c(C(=O)NCCCN1CCCCCC1)cn2C`
a: 0.45% (inactive)

q: Report inhibition for `O=[N+]([O-])c1ccc(N2CCN(S(=O)(=O)c3ccccc3)CC2)cc1NCc1ccco1`
a: -1.65% (inactive)

q: Report inhibition for `Cc1nn(Cc2ccccc2Cl)c2sc(C(=O)NC(C)(C)C)cc12`
a: 7.48% (inactive)

q: Report inhibition for `CCn1c(SCC(=O)Nc2ccccc2C(=O)OC)nnc1-c1cccc(C)c1`
a: -2.01% (inactive)

q: Report inhibition for `Cc1ccc(-c2nnn(CC(=O)N(CC(=O)NC3CCCCC3)c3ccc(F)c(Cl)c3)n2)o1`
a: 1.56% (inactive)

q: Report inhibition for `Cn1c(SCC(=O)N2CCCc3ccccc32)nc2cccnc21`
a: 4.22% (inactive)

q: Report inhibition for `COc1ccc(NC(=O)c2c(Cl)nc3ccccn23)cc1`
a: -0.46% (inactive)

---

Assay: M. tuberculosis H37Rv growth inhibitors, H37Rv strain (AID 1626);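 note: bacteria incubated seven days before Alamar blue readout; 0% = bacteria only wells and 100% = bacteria with antibiotic wells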
Conditions: active compounds read high, concentration not given here
Out of some 220,000 compounds screened, about 2,000 (0.91%) were called active. Another 2% or so got no clear call; they are omitted. A selection follows. Results with a measured potency or affinity are listed apart.
QUANTITY: inhibition (%)
The answer is to be given in %; state only the numeric part.

| COMPOUND | VALUE_MEASURED |
| --- | --- |
| O=C(NCCc1nc2ccccc2[nH]1)c1ccc(Cl)c([N+](=O)[O-])c1 | -1.68 |
| N#CC(Nc1ccccc1)c1ccccc1OCc1ccccc1 (centres undefined) | 5.52 |
| CCc1nc(SCc2ccc(C(=O)OC)o2)n[nH]1 | 1.73 |

q: Report inhibition for `OCCN1CCN(c2nc(NCc3ccco3)c3ccccc3n2)CC1`
a: -2.39

q: Report inhibition for `COc1cc(C(=O)Nc2nc3ccccc3[nH]2)cc(OC)c1OC`
a: 75.8
